Test system: 786-0 renal
assay procedure: NCI tumour cell line growth inhibition, 48 h
observed property: TGI

O=c1[nH]nc(-c2ccccc2)n1/N=C/c1cccnc1 | > 100 µM
N#Cc1ccccc1-c1nc2c3c(c(N)ccc3n1)C(=O)c1ccccc1-2 | > 100 µM
CC1(C)CC(C)(C)C1=NNC(N)=O | > 100 µM
COc1ccc(-c2cc(-c3cc4cc(Br)ccc4nc3Cl)c(C#N)c(N)n2)cc1 | > 12.5 µM
O=C1c2cc3c(cc2CC12Cc1ccc4c(c1C2=O)CCCC4)CCCC3 (stereo not drawn) | 46.1 µM
CN(/N=C/c1cccc2cccnc12)c1ccccc1 | > 100 µM
CCNC(=O)c1cc(/C=C/c2ccc([N+](=O)[O-])o2)nc2ccccc12 | > 100 µM
CC(=O)Nc1ccc(OC2=CCN(C)CC2)cc1 | > 100 µM

----------
Test system: SN12C renal
assay procedure: NCI tumour cell line growth inhibition, 48 h
Consider the following compounds and their measured TGI readings.
observed property: TGI

O=CC1CCCc2ccccc21 (stereo unspecified) | > 100 µM
O=c1c2ccccc2nc(-c2ccccc2)n1NC1OC(CO)C(O)C(O)C1O (stereo unspecified) | > 100 µM
CN(C(=O)c1ccco1)C(=S)N1CCN(c2ccccc2)CC1 | > 100 µM
C[C@]12CC[C@H]3[C@@H](CC[C@]4(O)C[C@@H](O)CC[C@]34/C=N/O)[C@@]1(O)CC[C@@H]2C1=COC(=O)C1 | 1.24 µM
O=c1c2cc(I)ccc2nc(-c2cccs2)n1-c1ccc(O)cc1 | 40.7 µM
COc1ccc(C2SC(C)C(=O)N2NC(=O)C(O)c2ccccc2)cc1OC (stereo unspecified) | > 100 µM

----------
System: T-47D breast
assay procedure: NCI tumour cell line growth inhibition, 48 h; in the data active = GI50 below about 0.43 µM; inactive = the rest
Labels: active, inactive

C[C@@H]1CC[C@H]2C(C(O)CCCCC(O)C3=C(C(F)(F)F)O[C@@H]4O[C@@]5(C)CC[C@H]6[C@H](C)CC[C@@H]3[C@@]46OO5)=C(C(F)(F)F)O[C@@H]3O[C@@]4(C)CC[C@@H]1[C@]32OO4 (some centres undefined) | inactive
O=[N+]([O-])c1cccc([As]=[As]c2cccc([N+](=O)[O-])c2)c1 (centres undefined) | active
Cc1ccc(CNc2c3ccccc3nc3cc(NC(=O)CCN4CCCC4)ccc23)cc1 | inactive
C[CH2][Sn]([CH2]C)([O]C(=O)C(OC(C)=O)c1ccccc1)[O]C(=O)C(OC(C)=O)c1ccccc1 (centres undefined) | inactive

----------
Tested on: TK-10 renal
assay procedure: NCI tumour cell line growth inhibition, 48 h
Consider the following molecules and their measured TGI readings.
observed property: TGI

COc1ccc(OC)c2c1C(=O)C1CC1(Br)C2=O (stereo unspecified) | > 100 µM
COc1ccc(-c2cc(-c3ccc(Nc4ccnc5cc(Cl)ccc45)cc3)[nH]c(=O)c2C#N)c2ccccc12 | 29.7 µM
C[CH2][Sn]([CH2]C)([O]C(=O)C(OC(C)=O)c1ccccc1)[O]C(=O)C(OC(C)=O)c1ccccc1 (stereo unspecified) | 33 µM
COC(=O)C1=C(c2cc(OC)c(OC)c(OC)c2)OC(c2ccc(OC)c(OC)c2)C1 (stereo unspecified) | > 100 µM
COc1ccc(-c2c(C#N)c(S)n(NS(=O)(=O)c3ccc(C)cc3)c(=O)c2C#N)cc1 | > 100 µM
CC(=O)c1c(C(F)(F)F)n([O-])c2cc(Cl)c(Cl)cc2[n+]1=O | 1.09 µM
CCOP(=O)(OCC)C1CC(n2cc(C)c(=O)[nH]c2=O)OC1CO (stereo unspecified) | > 100 µM
O=C(/C=C/c1ccc([N+](=O)[O-])cc1)c1ccc2c3c(cccc13)CC2 | > 75 µM
COc1ccccc1NC(=O)CC(=O)N1N=C(C)C(N=Nc2ccc(C(=O)O)cc2)C1=O (stereo unspecified) | > 100 µM
CCCCCCCCCCCCCCCCCCNc1ccn(C2OC(COP(=O)(O)OCC3OC(n4cc(F)c(NCCCCCCCCCCCCCCCCCC)nc4=O)CC3O)C(O)C2O)c(=O)n1 (stereo unspecified) | > 100 µM
COc1ccc(C2SC(C)C(=O)N2NC(=O)C(O)c2ccccc2)cc1OC (stereo unspecified) | > 100 µM
Cc1c(NC(=O)CSC(=S)N2CCN(Cc3ccccc3)CC2)c(=O)n(-c2ccccc2)n1C | > 100 µM
CSC1=N/C(=C\c2ccco2)C(=O)N1CN1CCOCC1 | > 100 µM
COC(=O)c1c(OC(C)=O)ccc2c1c1c(n2C)C(=O)c2ccccc2C1=O | 88.1 µM
COc1cc(C(=O)NC2CCN(C)CC2)c(F)cc1Nc1ncc2c(n1)N(C1CCCC1)CC(F)(F)C(=O)N2C | 12.6 µM
C#CCSC(C=C=C)P(=O)(OC(C)C)OC(C)C (stereo unspecified) | > 100 µM
C(CCCCc1nnc(N2CCCCC2)o1)CCCc1nnc(N2CCCCC2)o1 | > 100 µM
COc1ccc(/C=C2\S/C(=N/Nc3nc(-c4ccccc4)cs3)NC2=O)cc1OC | 59.4 µM
CCN(CC)c1ccc2cc(C(=O)Nc3cccc4ccccc34)c(=N)oc2c1 | > 100 µM
Cc1ccc(S(=O)(=O)Nc2cccc3[nH]c(C(F)(F)F)nc23)cc1 | 61.8 µM
Oc1c([Si](c2ccccc2)(c2ccccc2)c2ccccc2)cc2ccccc2c1-c1c(O)c([Si](c2ccccc2)(c2ccccc2)c2ccccc2)cc2ccccc12 | > 100 µM
COC1OC2COC1(OC)C1OC(C)(C)OC21 (stereo unspecified) | > 100 µM
COC(=O)[C@H]1CO[C@H]2C/C(C)=C/CC/C(C)=C/CC[C@@]3(C)O[C@@H]3C[C@H]21 | > 50 µM
NCCCN(CCCN)CCN(CCN(CCCN)CCCN)CCN(CCCN)CCCN | > 100 µM
C/C(CC(=O)Nc1ccc(Cl)cc1)=N\NC(N)=S | > 100 µM
O=C1c2c(O)cccc2C(C2OC(CO)C(O)C(O)C2O)c2cc(CO)cc(O)c21 (stereo unspecified) | > 100 µM
CC1(c2ccc[n+](Cc3ccccc3)c2)OCCO1 | > 100 µM
COc1ccc(/C=C2\CCCC3=C2NC(N)=NC3c2ccc(OC)c(OC)c2)cc1OC (stereo unspecified) | 27.9 µM
CSc1n[nH]c(N)c1C(=O)Nc1ccc(C)cc1 | > 100 µM
O=C(Cn1c(C(=O)/C=C/c2cccs2)nc2ccccc21)c1ccc(Cl)cc1 | 89.5 µM
O=c1ccn(CC2(CO)CC(Cc3ccccc3)C2)c(=O)[nH]1 (stereo unspecified) | > 100 µM
COC(=O)C(CSSC[C@H](N/C(C)=C/C(C)=O)C(=O)OC)N/C(C)=C/C(C)=O (stereo partly specified) | 39.1 µM
N#CC(c1nc2ccccc2nc1Cl)S(=O)(=O)c1ccccc1 (stereo unspecified) | > 100 µM
O=[N+]([O-])c1cccc([As]=[As]c2cccc([N+](=O)[O-])c2)c1 (stereo unspecified) | 0.266 µM
Cc1ccc(N2C(=O)C3C=CC(n4[nH]c(=O)n(Cc5ccccc5)c4=O)CC3C2=O)cc1 (stereo unspecified) | > 100 µM
Cc1[nH]c2ccccc2c1C1Cc2ccccc2N1C(=O)/C=C/C(=O)O (stereo unspecified) | > 100 µM
